Sourced from patent US8785488B2

- study system: human TGR5 (h-TGR5) (Homo sapiens, UniProt Q8TDU6)
- Construct: expressed in transfected cells
- Sequence (Q8TDU6 whole entry): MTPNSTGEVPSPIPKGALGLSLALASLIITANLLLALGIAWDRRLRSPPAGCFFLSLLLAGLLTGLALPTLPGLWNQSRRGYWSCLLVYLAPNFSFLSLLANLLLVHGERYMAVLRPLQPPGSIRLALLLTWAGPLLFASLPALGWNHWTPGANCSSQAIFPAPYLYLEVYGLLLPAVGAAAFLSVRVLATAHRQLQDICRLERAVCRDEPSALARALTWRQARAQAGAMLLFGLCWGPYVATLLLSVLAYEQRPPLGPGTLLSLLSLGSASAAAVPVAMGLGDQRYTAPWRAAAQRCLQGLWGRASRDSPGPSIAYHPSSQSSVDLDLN
- method: TGR5/CRE-Luciferiase Assay (HEK 293 hTGR5/CRE-Luc cells)
- Format: cell-based
- experimental context: h-TGR5 CRE-Luc EC50, Table 1; read-out: CRE-Luc (EC50)
measure name: EC50

Solved entries:
CC(C)(c1ccc2c(c1)OCCO2)c1cnc(SCc2ccc(F)cc2Cl)n1-c1ccc(F)cc1 | < 100 nM
COc1cc(-n2c(C(C)(C)c3ccc(F)c(Cl)c3)cnc2SCc2c(F)cc(CCCN(C)C)cc2F)ccc1F | < 100 nM
COc1cc(C(C)(C)c2cnc(SCc3c(F)cc(CCCNC(=N)N)cc3F)n2-c2ccc(F)cc2)ccc1Cl | < 100 nM
COc1cc(-n2c(C(C)(C)c3ccc(F)c(C#N)c3)cnc2SCc2ccc(S(=O)(=O)NC(=O)NC(C)C)cc2Cl)ccc1F | < 100 nM
CC(C)(c1ccc(F)c(F)c1)c1cnc(SCC2CCN(CC(O)CO)CC2)n1-c1ccc(F)cc1 (centres unmarked) | 1000 to 10000 nM
CC(C)(c1ccc(Cl)c(Cl)c1)c1cnc(SCc2ccc(Cl)c(C(=O)O)c2)n1-c1ccc(F)cc1 | 100 to 1000 nM
CC(C)(c1ccc(OCCO)cc1)c1cnc(SCc2c(F)cccc2Cl)n1-c1ccc(F)cc1 | 100 to 1000 nM
COc1cc(-n2c(C(C)(C)c3ccc(S(N)(=O)=O)c(Cl)c3)cnc2SCc2c(F)cc(C(=O)NCCC(=O)O)cc2F)ccc1F | < 100 nM

Enquiry: If you can, please state the reported EC50 value of `COc1cc(-n2c(C(C)(C)c3ccc(S(C)(=O)=O)cc3)cnc2SCc2ccc(S(=O)(=O)NC(=O)NN3CCCC3)cc2Cl)ccc1F` .
Return: 100 to 1000 nM

Enquiry: Same lookup for `CC(C)(c1ccc(Cl)c(Cl)c1)c1c(Cl)nc(SCc2c(F)cc(C(=O)O)cc2F)n1-c1ccc(F)cc1` , please.
Return: 100 to 1000 nM

Enquiry: Request: `CC(C)(c1ccc(Cl)c(Cl)c1)c1cnc(SCc2ccc(Cl)c(C(N)=O)c2)n1-c1ccc(F)cc1`
Return: < 100 nM

Enquiry: What do you get for `CC(C)(c1ccc(S(N)(=O)=O)c(Cl)c1)c1cnc(SCc2ccc(S(=O)(=O)NC(=O)NN3CCOCC3)cc2Cl)n1-c1ccc(F)c(Cl)c1` ?
Return: 100 to 1000 nM
